Source of measurements: the supplement of paper PMC11780869

test system: Bacillus subtilis; assay: cleaved RNA product abundance (RNA/gDNA barcode ratio) relative to median wild-type variant (ratio to wild type); higher = more accumulation of the downstream cleavage product; settings: experiment (reporter, strain, medium): exp 4a: truncated aprE reporter, strain BJT201 with 2% xylose (RNase J1 expressed); cleavage site: cggR-gapA (positions -7 to +36 mutated)
Readout Name: cleaved RNA product abundance
# respond with the number and nothing more

Query string: Which cleaved RNA product abundance reading was recorded for the sequence ACAGACGAAGGAGCCGCAAAGAAATGATTAAGGGATGAATAATCCCTCAATATAAATATCTCTCACTTATTTAAA ?
Result string: 0.457

Query string: Similarly, ACAGACGAAGGAGCCGCAAATACGTTATTAAGGGATGAATAATCCCTCAATATAAATATCTCTCACTTATTTAAA ?
Result string: 0.984

Query string: Similarly, ACAGACGAAGGAGCCGCAAAGAAGTTATTTAGGGATGAATAATCCCTCAATATAAATATCTCTCACTTATTTAAA ?
Result string: 0.799

Query string: Similarly, ACAGACGAAGGAGCCGCAAAGAAGTTATTAAGGGATGAATAATCCCTTAATATAAATAACTCTCACTTATTTAAA ?
Result string: 0.433

Query string: Similarly, ACAGACGAAGGAGCCGCAAAGATGTTATTAAGGGATGCATAATCCCTCAATATAAATATCTCTCACTTATTTAAA ?
Result string: 1.1

Query string: Similarly, ACAGACGAAGGAGCCGCAAACAAGTTATTAAGGGATGAAAAATCCCTCAATATAAATATCTCTCACTTATTTAAA ?
Result string: 0.359

Query string: Similarly, ACAGACGAAGGAGCCGCAAAGAAGTTATTAAGATATGAATAATCCCTAAATATAAATATCTCTCACTTATTTAAA ?
Result string: 0.101

Query string: Similarly, ACAGACGAAGGAGCCGCAAAGAAGTTTTTAAGGGTTGAATAATCCCTCAATATAAATATCTCTCACTTATTTAAA ?
Result string: 0.271

Query string: Similarly, ACAGACGAAGGAGCCGCAAAGAGGTTATTAAGAGATGAATAATCCCTCAATATAAATATCTCTCACTTATTTAAA ?
Result string: 0.126

Query string: Similarly, ACAGACGAAGGAGCCGCAAAGAAATTACTAAGGGATGAATAATCCCTCAATATAAATATCTCTCACTTATTTAAA ?
Result string: 0.247

Query string: Similarly, ACAGACGAAGGAGCCGCAAAGAAGTTATTAACGGTTGAATAATCCCTCAATATAAATATCTCTCACTTATTTAAA ?
Result string: 0.113

Query string: Similarly, ACAGACGAAGGAGCCGCAAAGAAGTTATTAAGGGACGAATAATCCCTCAATATAAATCTCTCTCACTTATTTAAA ?
Result string: 0.53

Query string: Similarly, ACAGACGAAGGAGCCGCAAAGAAGTAATTAACGGATGAATAATCCCTCAATATAAATATCTCTCACTTATTTAAA ?
Result string: 0.133

Query string: Similarly, ACAGACGAAGGAGCCGCAAAGAAGTTATTAAGGGATAAATAATCCCTCAATTTAAATATCTCTCACTTATTTAAA ?
Result string: 0.167

Query string: Similarly, ACAGACGAAGGAGCCGCATAGATGTTATTAAGGGATGAATAATCCCTCAATATAAATATCTCTCACTTATTTAAA ?
Result string: 1.38

Query string: Similarly, ACAGACGAAGGAGCCGCAAAGAAGTTATAAAGGGATGAATAATCCTTCAATATAAATATCTCTCACTTATTTAAA ?
Result string: 0.283

Query string: Similarly, ACAGACGAAGGAGCCGCAAAGAATTTACTAAGGGATGAATAATCCCTCAATATAAATATCTCTCACTTATTTAAA ?
Result string: 0.31

Query string: Similarly, ACAGACGAAGGAGCCGCAACAAAGTTATTAAGGGATGAATAATCCCTCAATATAAATATCTCTCACTTATTTAAA ?
Result string: 0.8

Query string: Similarly, ACAGACGAAGGAGCCGCAAAGAAGTTATTAAGGGATGCATAATACCTCAATATAAATATCTCTCACTTATTTAAA ?
Result string: 0.141

Query string: Similarly, ACAGACGAAGGAGCCGCAAAGAAGTTATTAAGGGATGAATAATCGTTCAATATAAATATCTCTCACTTATTTAAA ?
Result string: 0.0943

Query string: Similarly, ACAGACGAAGGAGCCGCAAAGAAGTTATTAAGGGATGCATAATTCCTCAATATAAATATCTCTCACTTATTTAAA ?
Result string: 0.559

Query string: Similarly, ACAGACGAAGGAGCCGCAAAGAAGTTATTAAGTGATGAATAATCACTCAATATAAATATCTCTCACTTATTTAAA ?
Result string: 1.13

Query string: Similarly, ACAGACGAAGGAGCCGCAAAGAAGTTATTAAGGGATGAATAATACCTCCATATAAATATCTCTCACTTATTTAAA ?
Result string: 0.092

Query string: Similarly, ACAGACGAAGGAGCCGCAAAGAAGTTATTAAGGGATGAATAATCCCTAAACATAAATATCTCTCACTTATTTAAA ?
Result string: 0.323

Query string: Similarly, ACAGACGAAGGAGCCGCAAACAAGTTATTAAGGGATGAATAATCCCTCATTATAAATATCTCTCACTTATTTAAA ?
Result string: 0.337

Query string: Similarly, ACAGACGAAGGAGCCGCAAAGAAGTTATTAATGGACGAATAATCCCTCAATATAAATATCTCTCACTTATTTAAA ?
Result string: 0.0953

Query string: Similarly, ACAGACGAAGGAGCCGCAAAGAAGTTATTAAGGGATGAATAATCCCTCAATTTAAATATCTCTCACTTATTTAAA ?
Result string: 0.218

Query string: Similarly, ACAGACGAAGGAGCCGCAAAAGAAGTTATTAAGGGATGAATAATCCCTCAATATAAATATCTCTCACTTATTTAA ?
Result string: 1.06

Query string: Similarly, ACAGACGAAGGAGCCGCAAAGAAGTTATTAAGGGATGTATAATTCCTCAATATAAATATCTCTCACTTATTTAAA ?
Result string: 0.576

Query string: Similarly, ACAGACGAAGGAGCCGCAAAGAAGTTATTAAGGGATGAATAATTCCTCAAGATAAATATCTCTCACTTATTTAAA ?
Result string: 0.256

---

tested on: Bacillus subtilis; experiment: cleaved RNA product abundance (RNA/gDNA barcode ratio) relative to median wild-type variant (ratio to wild type); higher = more accumulation of the downstream cleavage product; conditions: experiment (reporter, strain, medium): exp 4a: truncated aprE reporter, strain BJT201 with 2% xylose (RNase J1 expressed); cleavage site: cggR-gapA (positions -7 to +36 mutated)
So I've got a bunch of sequences here, and I need their cleaved RNA product abundance values.
# respond with the number and nothing more

Query string: Which cleaved RNA product abundance reading was recorded for the sequence ACAGACGAAGGAGCCGCAAAGAAATAATTAAGCGATGAATAATCCCTCAATATAAATATCTCTCACTTATTTAAA ?
Result string: 0.166

Query string: Similarly, ACAGACGAAGGAGCCGCAAAGAAGTTATTAAGGGATGGATAATCCCTCAATATAAAAATCTCTCACTTATTTAAA ?
Result string: 0.356

Query string: Similarly, ACAGACGAAGGAGCCGCTAAGAAGTTATTAAGGAATGAATAATCCCTCAATATAAATATCTCTCACTTATTTAAA ?
Result string: 0.0845

Query string: Similarly, ACAGACGAAGGAGCCGCAAAGAAGTTATTATGTGATGAATAATCCCTCAATATAAATATCTCTCACTTATTTAAA ?
Result string: 0.131

Query string: Similarly, ACAGACGAAGGAGCCGCAAAGAAGATATTACGGGATGAATAATCCCTCAATATAAATATCTCTCACTTATTTAAA ?
Result string: 0.351

Query string: Similarly, ACAGACGAAGGAGCCGCAAAGAATTTATTAAGGGATGAATAATCCCTCAATATAGATATCTCTCACTTATTTAAA ?
Result string: 0.431

Query string: Similarly, ACAGACGAAGGAGCCGCAAAGAAGTTATTAAGGGATGATTAATCCCTCAAAATAAATATCTCTCACTTATTTAAA ?
Result string: 0.282

---

So I've got a bunch of sequences here, and I need their cleaved RNA product abundance values.
test system: Bacillus subtilis; assay: cleaved RNA product abundance (RNA/gDNA barcode ratio) relative to median wild-type variant (ratio to wild type); higher = more accumulation of the downstream cleavage product; conditions: experiment (reporter, strain, medium): exp 4a: truncated aprE reporter, strain BJT201 with 2% xylose (RNase J1 expressed); cleavage site: cggR-gapA (positions -7 to +36 mutated)
# respond with the number and nothing more

Query string: Please provide the recorded cleaved RNA product abundance for ACAGACGAAGGAGCCGCAAAGAAGTTATTAAGGGATGATTAATCCCGCAATATAAATATCTCTCACTTATTTAAA , tested on Bacillus subtilis.
Result string: 0.0868

Query string: Similarly, ACAGACGAAGGAGCCGCAAAGAAGTTATTAACGGATGAATAATCCCTCAATATATATATCTCTCACTTATTTAAA ?
Result string: 0.152

Query string: Similarly, ACAGACGAAGGAGCCGCAAAGAAGTAATTAAGGGATGAATAAACCCTCAATATAAATATCTCTCACTTATTTAAA ?
Result string: 0.198

Query string: Similarly, ACAGACGAAGGAGCCGCAAAGAAGTCATTAAGGGATGAATAATGCCTCAATATAAATATCTCTCACTTATTTAAA ?
Result string: 0.13

Query string: Similarly, ACAGACGAAGGAGCCGCAAAGAAGTTATTAAGGGACGAATAATCCCTCCATATAAATATCTCTCACTTATTTAAA ?
Result string: 0.255

Query string: Similarly, ACAGACGAAGGAGCCGCAAAGAAGTTATCAAGGGATGAATAATCCCTAAATATAAATATCTCTCACTTATTTAAA ?
Result string: 0.333

Query string: Similarly, ACAGACGAAGGAGCCGCAAAGTATTTATTAAGGGATGAATAATCCCTCAATATAAATATCTCTCACTTATTTAAA ?
Result string: 0.594
